Target: HDAC10 (Homo sapiens, UniProt Q969S8)
Sequence (Q969S8 1-669): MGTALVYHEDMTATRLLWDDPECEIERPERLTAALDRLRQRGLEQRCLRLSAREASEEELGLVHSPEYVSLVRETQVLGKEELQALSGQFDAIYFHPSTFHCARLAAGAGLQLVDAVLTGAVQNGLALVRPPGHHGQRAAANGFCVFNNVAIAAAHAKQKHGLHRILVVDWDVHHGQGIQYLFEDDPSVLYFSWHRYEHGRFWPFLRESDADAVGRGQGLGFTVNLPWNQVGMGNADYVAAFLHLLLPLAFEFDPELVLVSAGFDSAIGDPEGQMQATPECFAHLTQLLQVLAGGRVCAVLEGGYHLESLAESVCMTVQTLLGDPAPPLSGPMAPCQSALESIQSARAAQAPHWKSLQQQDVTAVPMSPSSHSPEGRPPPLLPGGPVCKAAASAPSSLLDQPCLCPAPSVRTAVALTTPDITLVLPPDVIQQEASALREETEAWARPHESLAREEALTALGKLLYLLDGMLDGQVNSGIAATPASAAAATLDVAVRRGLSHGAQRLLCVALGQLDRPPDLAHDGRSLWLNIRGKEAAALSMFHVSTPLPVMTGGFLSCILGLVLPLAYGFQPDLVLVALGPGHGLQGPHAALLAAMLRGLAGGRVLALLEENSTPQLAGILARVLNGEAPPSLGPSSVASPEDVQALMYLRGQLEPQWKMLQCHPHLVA
pIC50: −log10 of the molar value.
Listed next: entries and their corresponding pIC50.

- compound: "COc1cc2nc(-c3ccc(C)o3)cc(NCC3CCN(c4ncc(C(=O)NO)cn4)CC3)c2cc1OC [CM-444]"
  assayedSystem: "HDAC10 (Homo sapiens, UniProt Q969S8)"
  pIC50: 7.82
- compound: "COc1cc2nc(-c3cc(C)oc3C)cc(NCC3CCN(c4ncc(C(=O)NO)cn4)CC3)c2cc1OC [CM-1758]"
  assayedSystem: "HDAC10 (Homo sapiens, UniProt Q969S8)"
  pIC50: 7.54
